System: 633275-114-R-J1-PDC complex spheroids, viability
Assay: Anticancer human tumor 633275-114-R-J1-PDC patient-derived endometrial adenocarcinoma cell line growth inhibition [GQUAD]
Details: second compound 0.1 µM; first compound 0.00999 µM; hits give low values
ASSAY ENDPOINT: viability, T/C (%)

molecule="Cc1[nH]c2ccccc2c1CCNCc1ccc(/C=C/C(=O)NO)cc1 + Cc1cnc(CNC(=O)c2c(=O)c3ccc(N4CCCN(C)CC4)nc3n3c2sc2ccccc23)cn1" assay_endpoint="viability, T/C" value_reported=45.2
molecule="CC[C@@]1(O)C(=O)OCc2c1cc1n(c2=O)Cc2cc3c(CN(C)C)c(O)ccc3nc2-1 + CN(C)c1ccc(Nc2c3ccc(NC(=O)CCN4CCCC4)cc3nc3cc(NC(=O)CCN4CCCC4)ccc23)cc1" assay_endpoint="viability, T/C" value_reported=99
molecule="Cn1ncnc1[C@H]1c2n[nH]c(=O)c3cc(F)cc(c23)N[C@@H]1c1ccc(F)cc1 + Cc1[nH]c2ccc(F)cc2c1-c1nc2c3cccnc3c3ncccc3c2[nH]1" assay_endpoint="viability, T/C" value_reported=91.7
molecule="Cn1ncnc1[C@H]1c2n[nH]c(=O)c3cc(F)cc(c23)N[C@@H]1c1ccc(F)cc1 + Cc1cnc(CNC(=O)c2c(=O)c3ccc(N4CCCN(C)CC4)nc3n3c2sc2ccccc23)cn1" assay_endpoint="viability, T/C" value_reported=50.2
molecule="Cc1[nH]c2ccccc2c1CCNCc1ccc(/C=C/C(=O)NO)cc1 + CN(C)c1ccc(Nc2c3ccc(NC(=O)CCN4CCCC4)cc3nc3cc(NC(=O)CCN4CCCC4)ccc23)cc1" assay_endpoint="viability, T/C" value_reported=80.5

###

System: 633275-114-R-J1-PDC complex spheroids, viability
Experiment: Anticancer human tumor 633275-114-R-J1-PDC cell line growth inhibition [GQUAD];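 also: spheroids exposed to the agents for seven days; percent of DMSO vehicle control viability which is 100%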
Conditions: second compound 1 µM; first compound 0.0999 µM; hits give low values
ASSAY ENDPOINT: viability, T/C (%)

molecule="Cn1ncnc1[C@H]1c2n[nH]c(=O)c3cc(F)cc(c23)N[C@@H]1c1ccc(F)cc1 + Cc1cnc(CNC(=O)c2c(=O)c3ccc(N4CCCN(C)CC4)nc3n3c2sc2ccccc23)cn1" test_system="633275-114-R-J1-PDC complex spheroids, viability" value_reported=34
molecule="CCc1c2c(nc3ccc(O)cc13)-c1cc3c(c(=O)n1C2)COC(=O)[C@]3(O)CC + Cc1[nH]c2ccc(F)cc2c1-c1nc2c3cccnc3c3ncccc3c2[nH]1" test_system="633275-114-R-J1-PDC complex spheroids, viability" value_reported=27.5
molecule="CC[C@@]1(O)C(=O)OCc2c1cc1n(c2=O)Cc2cc3c(CN(C)C)c(O)ccc3nc2-1 + Cc1[nH]c2ccc(F)cc2c1-c1nc2c3cccnc3c3ncccc3c2[nH]1" test_system="633275-114-R-J1-PDC complex spheroids, viability" value_reported=41.9

###

System: 633275-114-R-J1-PDC complex spheroids, viability
Test: Anticancer human tumor 633275-114-R-J1-PDC cell line growth inhibition [GQUAD];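 also: spheroids exposed to the agents for seven days; percent of DMSO vehicle control viability which is 100%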
Conditions: second compound 0.0316 µM; first compound 3.16 µM; hits give low values
Here the recorded viability, T/C is given for each entry.
ASSAY ENDPOINT: viability, T/C

compound="C=CCn1c(=O)c2cnc(Nc3ccc(N4CCN(C)CC4)cc3)nc2n1-c1cccc(C(C)(C)O)n1 + Cc1[nH]c2ccc(F)cc2c1-c1nc2c3cccnc3c3ncccc3c2[nH]1" assay_endpoint="viability, T/C" value_reported=22.2%
compound="Nc1ccn(C2OC(CO)C(O)C2(F)F)c(=O)n1 (stereo unspecified) + Cc1[nH]c2ccc(F)cc2c1-c1nc2c3cccnc3c3ncccc3c2[nH]1" assay_endpoint="viability, T/C" value_reported=22.9%
compound="CC1COCCN1c1cc(-c2ccnn2C)c2ccnc(-c3ccn[nH]3)c2n1 (stereo unspecified) + Cc1cnc(CNC(=O)c2c(=O)c3ccc(N4CCCN(C)CC4)nc3n3c2sc2ccccc23)cn1" assay_endpoint="viability, T/C" value_reported=18.7%
compound="CC(C)n1c(=O)n(C)c2cnc3cc(F)c(-c4ccc(OCCCN5CCCCC5)nc4)cc3c21 + CN(C)c1ccc(Nc2c3ccc(NC(=O)CCN4CCCC4)cc3nc3cc(NC(=O)CCN4CCCC4)ccc23)cc1" assay_endpoint="viability, T/C" value_reported=102%
compound="COc1ncnc(C2CC2)c1-c1ncc2cnn(Cc3ccc(-c4nc(C(F)(F)F)cn4C(C)C)cc3)c2n1 + CN(C)c1ccc(Nc2c3ccc(NC(=O)CCN4CCCC4)cc3nc3cc(NC(=O)CCN4CCCC4)ccc23)cc1" assay_endpoint="viability, T/C" value_reported=102%
compound="O=c1[nH]cc(F)c(=O)[nH]1 + Cc1cnc(CNC(=O)c2c(=O)c3ccc(N4CCCN(C)CC4)nc3n3c2sc2ccccc23)cn1" assay_endpoint="viability, T/C" value_reported=58.8%
